# METHOD: Cytotoxicity, MTT or WST-8 cell proliferation assay
# EXPERIMENTAL SETUP: human, A549 cells, CC50, A549 cells; Table 1
QUANTITY: CC50 at 42 h

CC(=O)Oc1ccccc1C(=O)Nc1ncc([N+](=O)[O-])s1 [Nitazoxanide]	> 100 µM

We now examine a further compound.
Look up and state reported CC50 at 42 h for `O=C(O)c1cccc(-c2noc(-c3ccccc3F)n2)c1`
> 100 µM

====

# System: WNV
# METHOD: microbe, parasite or virus in culture
# Type: cell-based, West Nile virus
# EXPERIMENTAL SETUP: West Nile virus, A549
QUANTITY: EC50 (nM)
Please state the figure in nM; there is no need to write the unit.

Please tell me the measured EC50 for CN(C)c1ccc2nc3ccc(=[N+](C)C)cc-3sc2c1 [Methylene blue] ; system: WNV.
100
